Experiment: Ketamine wafer pharmacokinetics and absolute bioavailability, crossover study in healthy volunteers
Settings: human, plasma, other: sublingual, 25 mg, tmax,SL, median of eight volunteers; 25 mg SL wafer
MEASURED METRIC: Tmax (min)

{"columns": ["COMPOUND", "MEASURED METRIC", "EXPERIMENTAL RESULT"],
 "data": [
  ["CNC1(c2ccccc2Cl)CCCCC1=O (racemic)", "Tmax", 45]
]}

###

Experiment: Ketamine wafer pharmacokinetics and absolute bioavailability, crossover study in healthy volunteers
Details: human, plasma, iv, 10 mg, CL, individual subjects; 10 mg as 30 minute IV infusion

{"columns": ["COMPOUND", "clearance [mL/min]"],
 "data": [
  ["CNC1(c2ccccc2Cl)CCCCC1=O (racemic)", 655]
]}
